biological target: Arachidonate 5-lipoxygenase (Bos taurus); test: 5-LO inhibitory activity, measured by production of 5-hydroxyeicosatetraenoic acid (5-HETE) and leukotriene B4 (LTB4) in bovine polymorphonuclear leukocytes
Sequence (Q9BEG3 whole entry): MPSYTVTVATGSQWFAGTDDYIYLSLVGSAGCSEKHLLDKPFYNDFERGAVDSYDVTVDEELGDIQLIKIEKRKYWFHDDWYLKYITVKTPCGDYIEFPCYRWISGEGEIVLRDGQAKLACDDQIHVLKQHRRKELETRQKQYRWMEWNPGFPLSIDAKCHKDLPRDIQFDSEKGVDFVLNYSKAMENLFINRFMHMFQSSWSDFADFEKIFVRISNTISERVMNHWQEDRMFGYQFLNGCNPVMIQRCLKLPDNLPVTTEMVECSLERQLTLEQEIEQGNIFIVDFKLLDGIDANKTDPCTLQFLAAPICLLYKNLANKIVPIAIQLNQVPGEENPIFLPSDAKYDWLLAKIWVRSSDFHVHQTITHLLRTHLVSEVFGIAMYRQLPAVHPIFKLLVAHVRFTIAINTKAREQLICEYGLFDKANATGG
measure: IC50 (µM)

- compound: "CN(O)C(=O)CCCCCc1ccc2c(c1O)C(=O)c1c(O)cccc1C2"
  measure: "IC50"
  obsValue: 0.4
- compound: "CN(O)C(=O)C(Cc1ccccc1)c1ccc2c(c1O)C(=O)c1c(O)cccc1C2 (stereo not given)"
  measure: "IC50"
  obsValue: 5
- compound: "CN(O)C(=O)c1ccc(C(=O)c2ccc3c(c2O)C(=O)c2c(O)cccc2C3)cc1"
  measure: "IC50"
  obsValue: 4

P: O=C1c2c(O)cccc2Cc2ccc(C(Cc3ccccc3)C(=O)NO)c(O)c21 (stereo not given)
Q: CN(O)C(=O)Cc1ccc2c(c1O)C(=O)c1c(O)cccc1C2
R: O=C1c2c(O)cccc2Cc2ccc(C(CCc3ccccc3)C(=O)O)c(O)c21 (stereo not given)
S: O=C(O)CCc1ccc2c(c1O)C(=O)c1c(O)cccc1C2
T: O=C(Cc1ccc2c(c1O)C(=O)c1c(O)cccc1C2)NO
Query :: Hey, quick one: sort these by IC50, largest value first please. A complete answer lists every label in the requested sequence.
Result :: S, T, P, R, Q
(S: 19 µM, T: 6 µM, P: 4 µM, R: 2 µM, Q: 1 µM)

====

assay: Antioxidant activity, measuring Deoxyribose degradation (DD) as a measure of hydroxyl radical formation.
measure: DD (µmol/mmol)

1: CC(C)C(C(=O)O)c1ccc2c(c1O)C(=O)c1c(O)cccc1C2 (stereo not given)
2: O=C(O)c1ccc(C(=O)c2ccc3c(c2O)C(=O)c2c(O)cccc2C3)cc1
3: CN(O)C(=O)CCc1ccc2c(c1O)C(=O)c1c(O)cccc1C2
Query :: Sort (3 compounds) by DD: min first. A complete answer lists every label in the requested sequence.
Result :: 3, 2, 1
(3: 0.92 µmol/mmol, 2: 1.34 µmol/mmol, 1: 3.58 µmol/mmol)

====

assay: Antioxidant activity, measuring Deoxyribose degradation (DD) as a measure of hydroxyl radical formation.
measure: DD (µmol/mmol)

Some compounds with known DD results, for comparison:
- compound: "CN(O)C(=O)Cc1ccc2c(c1O)C(=O)c1c(O)cccc1C2"
  measurementUnit: "µmol/mmol"
  DD: 1.67
- compound: "CN(O)C(=O)CCCCc1ccc2c(c1O)C(=O)c1c(O)cccc1C2"
  measurementUnit: "µmol/mmol"
  DD: 1.36
- compound: "O=C(CCc1ccc2c(c1O)C(=O)c1c(O)cccc1C2)NO"
  measurementUnit: "µmol/mmol"
  DD: 1.67

1: O=C1c2c(O)cccc2Cc2ccc(C(Cc3ccccc3)C(=O)NO)c(O)c21 (stereo unspecified)
2: O=C(Cc1ccc2c(c1O)C(=O)c1c(O)cccc1C2)NO
3: O=C1c2c(O)cccc2Cc2cccc(O)c21
4: COC(=O)CCCCc1ccc2c(c1O)C(=O)c1c(O)cccc1C2
Query :: Hey, quick one: sort these by DD, largest value first please. A complete answer lists every label in the requested sequence.
Result :: 3, 2, 1, 4

1: O=C(CCCCc1ccc2c(c1O)C(=O)c1c(O)cccc1C2)NO
2: CC(C)C(C(=O)N(C)O)c1ccc2c(c1O)C(=O)c1c(O)cccc1C2 (stereo unspecified)
Query :: Compare 1 and 2 and name the one whose reported DD is smaller. Kindly state the label of the option you pick.
Result :: 2
(2: 0.86 µmol/mmol, 1: 1.38 µmol/mmol)
